Tested on: phosphorylation of ERK, KRAS G12C in NCI-H358 cells
Assay: pERK inhibition assay, G12C
Format: cell-based, human
Settings: Homo sapiens; NCI-H358, 4 hours of incubation
Measure: IC50 (µM)
Output spec: scalar in µM, unitless text.

Per the record, CO[C@@H](C)c1ncc(N2CCN(C)CC2)cc1-c1c2c3cc(c(F)cc3n1CC(F)(F)F)-c1csc(n1)C[C@H](NC(=O)[C@H](C(C)C)N(C)C(=O)[C@H]1CC[C@H](C#CC(F)(F)F)CC1)C(=O)N1CCC[C@H](N1)C(=O)OCC(C)(C)C2 (atropisomer, axis not shown; (M)) has IC50 of 0.292

We next turn to a different molecule, shown below.
In plain terms, CO[C@@H](C)c1ncc(N2CCN(C)CC2)cc1-c1c2c3c(F)c(ccc3n1CC(F)(F)F)-c1csc(n1)C[C@H](NC(=O)[C@H](C(C)C)N(C)C(=O)[C@H]1C[C@@H](C#CC(F)(F)F)C1)C(=O)N1CCC[C@H](N1)C(=O)OCC(C)(C)C2 (atropisomer, axis not shown; (M)) has a documented IC50 of 0.092
